test: Microsomal stability in human liver microsomes assessed as parent compound remaining after 30 mins; type: ADME, Microsome; details: read-out: Stabilty
Reported remaining at 0.5 h by item:
State just the number; it will be interpreted in %.

Past entries and their recorded results:
Cn1c(COc2cccc(C(=O)O)c2)nc2ccc(Oc3cccnc3)cc21
100
Cc1ccc(Oc2ccc3nc(COc4cccc(C(=O)O)c4)n(C)c3c2F)c(C)n1
100
CCOc1cc(Oc2ccnc(OC)c2)cc2c1nc(COc1cccc(C(=O)O)c1)n2C
100
COc1cc(Oc2ccc3nc(COc4cccc(C(=O)O)c4)n(C)c3c2F)ccn1
97
COc1ncc(Oc2ccc3nc(COc4cccc(C(=O)O)c4)n(C)c3c2)cc1C
100

Query string: I have this compound here, CCOc1cc(Oc2ccc(C)nc2C)cc2c1nc(COc1cccc(C(=O)O)c1)n2C , and I need its recorded remaining at 0.5 h.
Result string: 100

Query string: // query remaining at 0.5 h value for entry CCOc1cc(Oc2ccc3nc(COc4cccc(C(=O)O)c4)n(C)c3c2)ccn1
Result string: 94

Query string: Fill blank: measured remaining at 0.5 h of the compound Cc1cc(Oc2ccc3nc(COc4cccc(C(=O)O)c4)n(C)c3c2)ccn1 is ____.
Result string: 100

Query string: For the compound Cc1ccc(Oc2ccc3nc(COc4cccc(C(=O)O)c4)n(C)c3c2)c(C)n1 , what remaining at 0.5 h is on record?
Result string: 100

Query string: Reported remaining at 0.5 h, compound Cc1ccc(Oc2ccc3nc(COc4cccc(C(=O)O)c4)n(C)c3c2)cn1 : ____
Result string: 87

Query string: Request the reported remaining at 0.5 h associated with COc1cc(Oc2cc(OC(C)C)c3nc(COc4cccc(C(=O)O)c4)n(C)c3c2)ccn1
Result string: 97

Query string: Can you look up the measured remaining at 0.5 h of COc1cc(Oc2ccc3nc(COc4cccc(C(=O)O)c4)n(C)c3n2)cc(C)n1 for me?
Result string: 91

Query string: Can you look up the measured remaining at 0.5 h of Cc1ccncc1Oc1ccc2nc(COc3cccc(C(=O)O)c3)n(C)c2c1 for me?
Result string: 100

From: ChEMBL document CHEMBL4665640
